Consider the following binders; for each one, report its % Blocking.
target: T1, human chemokine (C-C motif) receptor 8 (CCR8) (human, UniProt P51685 1-355); experiment: flow cytometry blocking, PBMC CCR8+ CD4+ cells; competitor PE-ABII (its MFI is read)
T1 construct: On human peripheral blood lymphocytes / PBMC (native) or on human CCR8 GFP-transfected Ba/F3 cells; also called hCCR8; human CCR8
T1 sequence (P51685 whole entry): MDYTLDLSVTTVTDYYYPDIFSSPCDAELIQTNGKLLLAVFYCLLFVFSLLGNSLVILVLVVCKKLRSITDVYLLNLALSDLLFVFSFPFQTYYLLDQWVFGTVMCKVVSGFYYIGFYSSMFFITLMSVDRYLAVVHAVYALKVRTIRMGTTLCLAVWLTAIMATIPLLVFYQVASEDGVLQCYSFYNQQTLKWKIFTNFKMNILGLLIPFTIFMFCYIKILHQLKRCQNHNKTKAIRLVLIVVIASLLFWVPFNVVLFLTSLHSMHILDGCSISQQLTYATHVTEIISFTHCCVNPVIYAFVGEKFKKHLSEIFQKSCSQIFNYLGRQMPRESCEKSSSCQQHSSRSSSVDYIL
Just the number in %, nothing appended.

Inquiry: Sample AB4 (antibody, V domains shown, Hybridoma monoclonal; also called antibody 4; clone 4) VH: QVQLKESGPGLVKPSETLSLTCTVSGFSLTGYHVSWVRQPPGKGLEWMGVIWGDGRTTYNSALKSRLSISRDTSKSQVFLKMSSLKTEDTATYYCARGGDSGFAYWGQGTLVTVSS VL: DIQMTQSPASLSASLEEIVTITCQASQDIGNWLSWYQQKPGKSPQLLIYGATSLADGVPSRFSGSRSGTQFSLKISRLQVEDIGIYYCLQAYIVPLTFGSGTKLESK — what was its % Blocking?
Reply text: -7.57

Inquiry: So what does the record say about % Blocking for AB13 (antibody, V domains shown, Hybridoma monoclonal; also called antibody 13; clone 13) VH: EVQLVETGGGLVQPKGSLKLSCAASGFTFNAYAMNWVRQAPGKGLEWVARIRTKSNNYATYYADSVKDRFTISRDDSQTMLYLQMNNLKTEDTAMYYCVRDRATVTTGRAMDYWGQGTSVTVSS VL: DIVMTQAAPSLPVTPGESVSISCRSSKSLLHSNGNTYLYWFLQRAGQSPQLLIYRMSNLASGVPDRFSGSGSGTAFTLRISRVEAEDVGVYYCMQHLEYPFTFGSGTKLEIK ?
Reply text: 12.2

Inquiry: Any idea what its % Blocking is? The binder is AB2 (antibody, V domains shown, Hybridoma monoclonal; also called antibody 2; clone 2) VH: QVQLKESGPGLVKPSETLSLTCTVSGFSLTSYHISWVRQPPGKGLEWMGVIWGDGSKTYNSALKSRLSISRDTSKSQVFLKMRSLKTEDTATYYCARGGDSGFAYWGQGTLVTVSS VL: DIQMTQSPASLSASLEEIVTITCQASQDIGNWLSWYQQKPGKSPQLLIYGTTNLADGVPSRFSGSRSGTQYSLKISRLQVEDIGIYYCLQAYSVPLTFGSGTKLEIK
Reply text: 0.77

The origin of these recorded values is patent US20240360228A1.
